tested on: human lung cancer strain NCI-H441; assay type: cell-based
pIC50: −log10 of the molar value.
The compounds listed here are annotated with their pIC50.

>  <compound>
CCO[C@@H]1C[C@H]2C(=O)N(C)C3(CCCC3)C(=O)N(C)[C@@H](C3CCCC3)C(=O)N(C)[C@H](C(=O)N(C)C)CC(=O)N(C)[C@@H](C3CC3)C(=O)N[C@@H]([C@@H](C)CC)C(=O)N(C)CC(=O)N(C)[C@H]3C/C=C\CCN(C3=O)[C@@H](Cc3ccc(C)cc3)C(=O)N(C)CC(=O)N[C@@H](CCc3cc(F)c(C(F)(F)F)c(F)c3)C(=O)N2C1 [PP1808]

>  <system-under-test>
human lung cancer strain NCI-H441

>  <pIC50>
8.06

$$$$
>  <compound>
CCCN1C(=O)CN(C)C(=O)CN(C)C(=O)[C@H]([C@@H](C)CC)NC(=O)[C@@H]2COCCCC[C@@](C)(NC(=O)[C@@H]3C[C@@H](OCC)CN3C(=O)[C@H](CCc3cc(F)c(C(F)(F)F)c(F)c3)NC(=O)CN(C)C(=O)[C@@H]1Cc1ccc(C(F)(F)F)cc1)C(=O)N(C)[C@@H](C1CCCC1)C(=O)N(C)[C@H](C(=O)N1CCOCC1)CC(=O)N2C [PP0899]

>  <system-under-test>
human lung cancer strain NCI-H441

>  <pIC50>
6.03

$$$$
>  <compound>
C#CCN1CC(=O)N(C)[C@H]2C/C=C\CCN(C2=O)[C@@H](Cc2ccc(C(F)(F)F)cc2)C(=O)N(C)CC(=O)N[C@@H](CCc2cc(F)c(C(F)(F)F)c(F)c2)C(=O)N2C[C@H](OCC)C[C@H]2C(=O)NC2(CC(C)(C)C2)C(=O)N(C)[C@@H](C2CCCC2)C(=O)N(C)[C@H](C(=O)N(C)C)CC(=O)N(C)[C@@H](CC)C(=O)N[C@@H]([C@@H](C)CC)C1=O [PP2087]

>  <system-under-test>
human lung cancer strain NCI-H441

>  <pIC50>
8.32

$$$$

----------
Reported Kd values are given for each entry in this list.
molecular target: GDP-bound KRAS wild-type protein (Homo sapiens); assay: Binding to KRAS by surface plasmon resonance (SPR), dissociation constant KD; conditions: Single Cycle Kinetics
Sequence (P01116 1-188 isoform P01116-2): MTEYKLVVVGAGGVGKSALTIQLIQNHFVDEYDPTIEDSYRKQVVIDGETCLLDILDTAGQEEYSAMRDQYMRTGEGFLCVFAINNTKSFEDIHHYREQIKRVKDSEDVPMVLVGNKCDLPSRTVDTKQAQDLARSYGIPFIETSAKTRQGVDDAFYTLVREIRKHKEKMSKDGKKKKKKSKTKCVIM

>  <compound-smiles>
CCC[C@H]1C(=O)N[C@@H]([C@@H](C)CC)C(=O)N(C)CC(=O)N(C)[C@H]2C/C=C\CCN(C2=O)[C@@H](Cc2ccc(C)cc2)C(=O)N(C)CC(=O)N[C@@H](CCc2ccc(C(F)(F)F)c(OC)c2)C(=O)N2C[C@H](OCC)C[C@H]2C(=O)OC2(CCC2)C(=O)N(C)[C@@H](C2CCCC2)C(=O)N(C)[C@H](C(=O)N(C)C)CC(=O)N1C

>  <Kd>
0.16 nM

$$$$
>  <compound-smiles>
CCCO[C@@H]1C[C@H]2C(=O)NC3(CC(C)(C)C3)C(=O)N(C)[C@@H](C3CCCC3)C(=O)N(C)[C@H](C(=O)N(C)CC)CC(=O)N(C)[C@@H](COCC)C(=O)N[C@@H]([C@@H](C)CC)C(=O)N(C3CC3)CC(=O)N(C)[C@H]3C/C=C\CCN(C3=O)[C@@H](Cc3ccc(C)cc3)C(=O)N(C)CC(=O)N[C@@H](CCc3ccc(C(F)(F)F)c(Cl)c3)C(=O)N2C1

>  <Kd>
0.68 nM

$$$$
>  <compound-smiles>
C=C(C)C[C@H]1C(=O)N(C)[C@H](C(=O)N(C)C)CC(=O)N(C)[C@@H](CCC)C(=O)N[C@@H]([C@@H](C)CC)C(=O)N2CCC[C@H]2C(=O)N(C)[C@H]2C/C=C\CCN(C2=O)[C@@H](Cc2ccc(C(F)(F)F)cc2)C(=O)N(C)CC(=O)N[C@@H](CCc2cc(F)c(C(F)(F)F)c(F)c2)C(=O)N2C[C@H](OCC)C[C@H]2C(=O)N(C)C2(CCC2)C(=O)N1C

>  <Kd>
3.6 nM

$$$$
